Recorded MIC90 values for a group of compounds are listed next.
system: Escherichia coli; assay: Antibacterial activity against Escherichia coli M15; format: functional
A complete answer gives the number and then names the unit.

>  <compound>
CO[C@H]1/C=C/O[C@@]2(C)Oc3c(C)c(O)c4c(O)c(c(/C=N/N5CCN(C)CC5)c(O)c4c3C2=O)NC(=O)/C(C)=C\C=C\[C@H](C)[C@H](O)[C@@H](C)[C@@H](O)[C@@H](C)[C@H](OC(C)=O)[C@@H]1C [RIFAMPIN]

>  <measuredProperty>
MIC90

>  <resultValue>
128 mg/L

$$$$

Request: Give the measured MIC90 of COc1cc(/C=C/C(=O)CC(=O)/C=C/c2ccc(O)c(OC)c2)ccc1O [CURCUMIN] .
Result: 73.7 mg/L

Request: And what about the compound Oc1cc(Cl)ccc1Oc1ccc(Cl)cc1Cl [TRICLOSAN] ?
Result: 2.9 mg/L

Request: For CN[C@@H]1[C@H](O)[C@H](NC)[C@H]2O[C@@]3(O)C(=O)C[C@@H](C)O[C@H]3O[C@@H]2[C@H]1O [SPECTINOMYCIN] then?
Result: 20 mg/L
